Growth Rate values by entry
System: U2OS
protocol_notes: Incucyte cell viability with U2OS; also: unitless GR value; below 1 slowed growth and below 0 cell loss
Type: toxicity, cell-based
particulars: human, 24 h, 10 µM, compound concentration 10 uM, replicate number 1
API note: the answer field is a bare number with no unit suffix.

Solved entries (count: 4):
compound: CNC(=O)c1cc(C(=O)NC2CC2)cn(Cc2ccccc2)c1=O [GSK620]
system_tested: U2OS
Growth Rate: 0.88
//
compound: CN1CCN(c2ccc(-n3cc(-c4ccncc4OCC4CCNCC4)cn3)cc2)CC1
system_tested: U2OS
Growth Rate: 0.53
//
compound: CC(C)(C)c1cc(NC(=O)c2csc(Nc3ccc(Cl)cc3)n2)no1
system_tested: U2OS
Growth Rate: -0.59
//
compound: Cc1cc2ncnn2cc1Nc1ncc2c(n1)n(C1CCOCC1)c(=O)n2C [AZD-7648]
system_tested: U2OS
Growth Rate: 0.9

Here is the next item to consider.
Short answer for `Cl.Cl.O=[N+]([O-])c1ccc(CN2CCOCCOCCN(Cc3ccc([N+](=O)[O-])cc3)CCOCC2)cc1` : Growth Rate was 0.67

---

Listed compounds paired with reported Growth Rate
Test system: HEK-293T
protocol_notes: Incucyte cell viability with HEK293T; also: unitless GR value; below 1 slowed growth and below 0 cell loss
Type: toxicity, cell-based
particulars: human, 18 h, 10 µM, compound concentration 10 uM, replicate number 2

Look over these answered cases.
compound: Cn1cc(-c2ccc3occ(-c4cccc(-c5ccncc5)c4)c3n2)cn1
Growth Rate: 0.33
--
compound: Cn1cc(-c2ccc(N(C(=O)NCc3ccccc3)[C@H]3CC[C@H](Nc4ccc(C#N)cn4)CC3)cc2)ccc1=O
Growth Rate: -0.48

The recorded Growth Rate for `Cn1cncc1-c1cn(-c2cccc(C(=O)Nc3cccc(C(F)(F)F)c3)c2)nn1` is 0.14

// sample CC[N+](CC)(CC)CCOc1ccc(/C=C/c2ccccc2)cc1.[I-] [STILONIUM IODIDE] , its Growth Rate was -0.12

// recorded Growth Rate for `COc1cc(-c2cn(C)c(=O)c3cnccc23)c(OC)cc1CN(C)C` : 0.68

Measured Growth Rate, `CN(C)C/C=C/C(=O)Nc1cc2c(Nc3ccc(F)c(Cl)c3)ncnc2cc1OC[C@@H]1CCCO1` : -0.29

Notebook: `O=C(Cc1ccccc1[N+](=O)[O-])Nc1ccc(-c2ccc(C(O)(C(F)(F)F)C(F)(F)F)cc2F)cc1` , Growth Rate read as 0.6

# Growth Rate (compound: `CC1=C(C(=O)OCCO)[C@@H](c2ccc(C#N)cc2)NC(=O)N1c1cccc(C(F)(F)F)c1` ) is 0.71

---

Tested on: Fibroblast
protocol_notes: Incucyte cell viability with human fibroblast; also: unitless GR value; below 1 slowed growth and below 0 cell loss
Type: toxicity, cell-based
particulars: 18 h, 10 µM, compound concentration 10 uM, replicate number 2
Define the label as 1 when Growth Rate is strictly less than 0.7 and as -1 in all remaining cases.

Check out these entries, answers already filled in.
compound: CN(C)[C@H]1CC[C@H](Nc2ncc3ncnc(Nc4ccc(F)c(Cl)c4)c3n2)CC1
classification: 1
--
compound: Cc1c(-c2c(F)cc(C(N)=O)c3[nH]c4c(c23)CC[C@H](C(C)(C)O)C4)cccc1-n1c(=O)c2cccc(F)c2n(C)c1=O
classification: -1
--
compound: Cn1c(=O)n(CCCO)c(=O)c2c1nc(Oc1cccc(OC(F)(F)F)c1)n2Cc1ccc(Cl)cc1
classification: 1
--
compound: COc1cc2nc(C)nc(N[C@H](C)c3cc(N)cc(C(F)(F)F)c3)c2cc1O[C@H]1CCOC1
classification: 1
--
compound: CC(=O)c1c(C)c2cnc(Nc3ccc(N4CCNCC4)cn3)nc2n(C2CCCC2)c1=O
classification: -1
--
compound: CC[C@]1(C)C[C@@H](OC(=O)CSc2nnc(N)[nH]2)[C@@]2(C)[C@H](C)CC[C@@]3(CCC(=O)[C@H]32)[C@@H](C)[C@@H]1O
classification: -1
--
compound: O=C(CCCCCCc1ccccc1)c1ncc(-c2ccccn2)o1
classification: -1
--
compound: Cn1cc(-c2ccc3occ(-c4cccc(-c5ccncc5)c4)c3n2)cn1
classification: 1
--
compound: COc1ccc(Cl)cc1[C@]1(F)C(=O)Nc2cc(C(F)(F)F)ccc21
classification: 1
--
compound: COc1ccc(S(=O)(=O)N2CCOCC2)cc1Nc1ccc2c(n1)N(C1CCOCC1)[C@H](C)C(=O)N2C
classification: 1

Request: Decide: Growth Rate of `CC(=O)NCC(=O)N1[C@@H]2CC[C@H]1c1ccc(Nc3ncc(C(F)(F)F)c(NC4CCC4)n3)cc12` strictly below 0.7?
Response: 1

Request: Please indicate whether the reported Growth Rate of `O=C1NCc2ccc3c(-c4cccc(Cl)c4)c[nH]c3c21` is strictly below 0.7.
Response: 1

Request: Does the reported Growth Rate of `CC(C)(C)OC(=O)CN(Cc1ccc(Cl)cc1)Cc1ccc([N+](=O)[O-])s1` stay below 0.7?
Response: 1

Request: # TODO verify Growth Rate < 0.7 strictly for this compound: `Cc1cccc(F)c1C(=O)Nc1cnc(-c2cc3c(cc2Cl)OC(F)(F)O3)cn1`
Response: 1

Request: Decide: Growth Rate of CCOc1cc(CC(=O)N[C@@H](CC(C)C)c2ccccc2N2CCCCC2)ccc1C(=O)O [REPAGLINIDE] strictly below 0.7?
Response: 1

Request: Please state whether Growth Rate is below 0.7 for `COC[C@@H](CC(C)C)NC1=N/C(=C\c2ccc3ncsc3c2)C(=O)N1C`
Response: 1

Request: # TODO verify Growth Rate < 0.7 strictly for this compound: `COc1cc(N2CCN(C)CC2)ccc1Nc1ncc2c(n1)N(C)c1ccccc1C(=O)N2CC(F)(F)F`
Response: 1

Request: Growth Rate strictly < 0.7 for this compound? `Cc1ccc(-c2cn3nc(C(=O)NC4(c5ccc(F)cc5)CN(C)C4)c(C(C)C)c3c(=O)[nH]2)cc1C`
Response: 1

---

Tested on: U2OS
protocol_notes: Incucyte cell viability with U2OS; also: unitless GR value; below 1 slowed growth and below 0 cell loss
Type: toxicity, cell-based
particulars: human, 0 h, 10 µM, compound concentration 10 uM, replicate number 2
property_measured: Growth Rate
I only need the number, thanks.

Examples from the recorded data:
molecule: CCN1C(=O)/C(=C(\NC2CCN(C)CC2)c2ccc3c(c2)OCO3)c2cc(C(C)=O)ccc21
data_value: -0.34
--
molecule: CN1[C@@H](CC(=O)c2ccccc2)CCC[C@H]1C[C@H](O)c1ccccc1.Cl [LOBELINE HYDROCHLORIDE]
data_value: -0.67
--
molecule: Cc1nsc(Nc2cnc(C(F)(F)F)cn2)c1C(=O)Nc1ccc(O[C@H]2CCCN(CC(F)(F)F)C2)nc1
data_value: 0.91

Then this molecule:
Lab note: CN[C@@H](C)C/C=C/c1cncc(OC(C)C)c1 [ISPRONICLINE] gave Growth Rate of 0.2

---

Tested on: U2OS
protocol_notes: Incucyte cell viability with U2OS; also: unitless GR value; below 1 slowed growth and below 0 cell loss
Assay type: toxicity, cell-based
particulars: human, 12 h, 10 µM, compound concentration 10 uM, replicate number 1
property_measured: Growth Rate
Please state the value as a number alone, without comment.

molecule: COc1cc2ncnc(Nc3ccc(F)c(Cl)c3)c2cc1OCCN(C)C[C@H](C)O
Growth Rate: 0.68

molecule: CC(C)(C[C@H]1CN(S(=O)(=O)c2cccc(C(F)(F)F)c2)c2cc(-c3cc(F)cc(OC(F)F)c3)ccc2O1)C(=O)O [CINTIRORGON]
Growth Rate: 0.81

molecule: COc1cc(F)ccc1-c1ncnc(Nc2cccc(C[S@](C)(=N)=O)c2)n1 [ATUVECICLIB]
Growth Rate: 0.33

molecule: COc1ccc(COc2ccc(Cc3cnc(N)nc3N)cc2OC)cc1 [GW632580X]
Growth Rate: 0.7

molecule: Nc1ncnc2c1c(COc1cccc(Cl)c1)nn2C1CCOCC1
Growth Rate: 0.63

Memo: CCN1CCN(Cc2ccc(Nc3ncc(F)c(-c4cc(F)c5nc(C)n(C(C)C)c5c4)n3)nc2)CC1 [ABEMACICLIB] , reported Growth Rate: 0.83

For this molecule ( `C[C@]12CC[C@@H]3c4ccc(O)cc4CC[C@H]3[C@@H]1C[C@H]1OC(=O)C[C@]12O` ), measured Growth Rate is 0.21

Noted for `CN(C)C/C=C/C(=O)Nc1cccc(S(=O)(=O)N2CCC(NC(=O)c3n[nH]cc3NC(=O)c3c(Cl)cc(Cl)cc3Cl)CC2)c1` : its Growth Rate reads 0.1

---

Test system: U2OS
protocol_notes: Incucyte cell viability with U2OS; also: unitless GR value; below 1 slowed growth and below 0 cell loss
Assay type: toxicity, cell-based
particulars: human, 12 h, 10 µM, compound concentration 10 uM, replicate number 2
property_measured: Growth Rate
Reply with just the number.

record_smiles: NC(=O)c1ccc2[nH]c(-c3ccc(Oc4ccc(Cl)cc4)cc3)nc2c1
system_tested: U2OS
Growth Rate: 0.71
//
record_smiles: COc1cc(-c2cc3ncccc3c(OC[C@H]3CNC(=O)C3)n2)cc(OC)c1OC1CCOCC1.O=C(O)C(F)(F)F
system_tested: U2OS
Growth Rate: 0.93
//
record_smiles: C=CC(=O)Nc1ccc(C(=O)Nc2n[nH]c3c2CN(C(=O)N[C@H](CN(C)C)c2ccccc2)C3(C)C)cc1
system_tested: U2OS
Growth Rate: -0.41
//
record_smiles: COc1ccc(-c2coc3cc(O)cc(O)c3c2=O)cc1
system_tested: U2OS
Growth Rate: 0.77

Sure, the documented Growth Rate for `COc1cc(-c2cncc(-c3ccc(N4CCN(C(C)C)CC4)cc3)c2C)cc(F)c1C(=O)N1CCCC1` is 1

get_value(item= `CP(C)(=O)c1ccc(CNC(=O)C2CCN(S(=O)(=O)c3cc(Cl)cc(Cl)c3)CC2)cc1` , readout=Growth Rate) returns 0.85

Data point: `Cn1nc(-c2ccc(C(N)=O)cc2)c2ccccc2c1=O` ; Growth Rate = 0.97

Growth Rate reported for this compound `CC(C)(O)[C@H]1CC[C@H](Nc2ccc3ncc(-c4cccc(C(F)(F)F)c4)n3n2)CC1` : 0.24

Looking up `O=C(Nc1cc(C(F)(F)F)cc(C(F)(F)F)c1)c1cc(Cl)ccc1O` , I see its Growth Rate listed as 0.03
